Hi there, I'd appreciate the recorded binding signal for every entry that follows.
Biological target: GST-Rok-C97-191 (Bacillus subtilis subsp. subtilis str. …, UniProt O34857 97-191)
Sequence: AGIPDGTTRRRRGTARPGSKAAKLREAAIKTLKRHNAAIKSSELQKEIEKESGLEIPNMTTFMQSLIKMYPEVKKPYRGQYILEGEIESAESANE
Assay: protein binding microarray; high values mean tight binding
Settings: protein: recombinant; tags: GST (pTH5325, pDEST15-Magic modified); dsDNA, one strand shown
Over roughly 33,000 sequences, “e-score” has its median near -0.038; the highest 2% begin near 0.33. What follows is part of a selection rich in the highest values, with near analogues and random picks from the rest.
Reply numerically in E-score, unit not repeated.

GET /values?readout=binding signal&system=GST-Rok-C97-191 (Bacillus subtilis subsp. subtilis str. …, UniProt O34857 97-191)&item= `AAAGTAGA`
0.298

GET /values?readout=binding signal&system=GST-Rok-C97-191 (Bacillus subtilis subsp. subtilis str. …, UniProt O34857 97-191)&item= `AAAATGTG`
0.218

GET /values?readout=binding signal&system=GST-Rok-C97-191 (Bacillus subtilis subsp. subtilis str. …, UniProt O34857 97-191)&item= `ACCTTCGG`
-0.173

* * *

Hi there, I'd appreciate the recorded binding signal for every entry that follows.
Target: GST-Rok-C97-191 (Bacillus subtilis subsp. subtilis str. …, UniProt O34857 97-191)
Sequence: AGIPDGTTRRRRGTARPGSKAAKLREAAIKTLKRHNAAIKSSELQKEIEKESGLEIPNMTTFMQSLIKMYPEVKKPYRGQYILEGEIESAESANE
Assay: protein binding microarray; Rok is a gene silencer of Bacillus subtilis; high values mean tight binding
Settings: protein: recombinant; tags: GST (pTH5325, pDEST15-Magic modified); dsDNA, one strand shown
Whole data set: some 33,000 sequences, median “e-score” near -0.038, cut for the highest 2% near 0.33. The entries come from a sample that favours the highest values as a whole.
Your reply should be a number followed by the unit it is expressed in.

// binding signal lookup, key: `ACTACAAC`
0.295 E-score

// binding signal lookup, key: `TAGTCGCA`
0.00372 E-score

// binding signal lookup, key: `ACTACATC`
0.334 E-score

// binding signal lookup, key: `CCTTAGAC`
-0.116 E-score

// binding signal lookup, key: `ACCGGTAG`
0.335 E-score

// binding signal lookup, key: `AATAATAG`
0.405 E-score

// binding signal lookup, key: `GCTAATAA`
0.212 E-score

// binding signal lookup, key: `GCGAGTTA`
0.0475 E-score

// binding signal lookup, key: `GTAGTGCA`
0.015 E-score

// binding signal lookup, key: `CTTAATAC`
0.0879 E-score

// binding signal lookup, key: `GTAACTAA`
0.353 E-score

// binding signal lookup, key: `ACTACAAT`
0.329 E-score

// binding signal lookup, key: `ACTACATG`
0.307 E-score

// binding signal lookup, key: `TAAATAAA`
0.162 E-score

// binding signal lookup, key: `GATAATAA`
0.174 E-score

// binding signal lookup, key: `CATAATAG`
0.136 E-score

// binding signal lookup, key: `CATAAAGC`
-0.119 E-score
